# measurement target: T1, VEGFR2 on SVR angiosarcoma cells (murine cell line) (murine, UniProt P35918 20-1345)
# T1 construct: whole, on cells
# T1 sequence (P35918 20-1345): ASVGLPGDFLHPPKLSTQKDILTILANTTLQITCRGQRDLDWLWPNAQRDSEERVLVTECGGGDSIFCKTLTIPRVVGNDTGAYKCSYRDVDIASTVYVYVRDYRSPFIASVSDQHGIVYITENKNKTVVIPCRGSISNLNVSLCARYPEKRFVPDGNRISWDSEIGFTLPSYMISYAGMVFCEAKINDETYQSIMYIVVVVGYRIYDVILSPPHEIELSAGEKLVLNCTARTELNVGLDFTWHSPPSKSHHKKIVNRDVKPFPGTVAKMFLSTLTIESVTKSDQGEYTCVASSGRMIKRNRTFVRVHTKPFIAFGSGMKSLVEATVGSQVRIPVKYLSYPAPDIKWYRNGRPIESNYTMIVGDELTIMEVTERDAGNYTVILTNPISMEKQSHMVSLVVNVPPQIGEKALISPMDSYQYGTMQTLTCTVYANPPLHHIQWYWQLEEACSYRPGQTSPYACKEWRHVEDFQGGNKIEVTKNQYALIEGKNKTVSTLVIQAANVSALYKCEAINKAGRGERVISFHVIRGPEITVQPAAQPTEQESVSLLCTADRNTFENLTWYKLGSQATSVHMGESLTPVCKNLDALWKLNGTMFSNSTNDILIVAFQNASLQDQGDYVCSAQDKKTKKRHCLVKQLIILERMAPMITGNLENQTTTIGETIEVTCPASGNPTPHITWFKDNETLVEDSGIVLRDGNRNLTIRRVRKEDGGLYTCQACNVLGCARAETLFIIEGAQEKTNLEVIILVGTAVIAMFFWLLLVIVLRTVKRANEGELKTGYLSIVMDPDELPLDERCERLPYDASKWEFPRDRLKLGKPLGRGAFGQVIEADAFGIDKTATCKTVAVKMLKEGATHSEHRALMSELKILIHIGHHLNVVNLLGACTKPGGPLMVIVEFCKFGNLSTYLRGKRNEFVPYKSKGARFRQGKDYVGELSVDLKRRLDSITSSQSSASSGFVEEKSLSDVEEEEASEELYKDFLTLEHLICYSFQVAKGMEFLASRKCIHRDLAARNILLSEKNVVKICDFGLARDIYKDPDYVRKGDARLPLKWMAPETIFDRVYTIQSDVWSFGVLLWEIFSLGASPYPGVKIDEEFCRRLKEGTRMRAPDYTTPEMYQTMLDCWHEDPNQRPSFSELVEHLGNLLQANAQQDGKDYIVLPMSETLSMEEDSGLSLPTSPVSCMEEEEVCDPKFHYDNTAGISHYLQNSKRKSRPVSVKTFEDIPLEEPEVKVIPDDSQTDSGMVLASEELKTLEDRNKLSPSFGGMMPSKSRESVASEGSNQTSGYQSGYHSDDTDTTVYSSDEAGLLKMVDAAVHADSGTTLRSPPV
# assay notes: flow cytometry titration on SVR cells, anti-FLAG detection
property label: Kd

[ask] Look at this binder and give its reported Kd. scVEGFwt (ligand, also called wild-type scVEGF; single-chain VEGF) YVEVVKFMDVYQRSYCHPIETLVDIFQEYPDEIEYIFKPSCVPLMRCGGCCNDEGLECVPTEESNITMQIMRIKPHQGQHIGEMSFLQHNKCECRPKKDGSTSGSGKSSEGKGEVVKFMDVYQRSYCHPIETLVDIFQEYPDEIEYIFKPSCVPLMRCGGCCNDEGLECVPTEESNITMQIMRIKPHQGQHIGEMSFLQHNKCECRPKKDTR
[reply] 32 nM

[ask] Look at this binder and give its reported Kd. scVEGF-mE (designed binder, Soluble protein with C-terminal hexahistidine tag, with or without N-terminal FLAG tag (tags not included in the parts); also called scVEGFmut-E) EVVKAMDVYQRSYCHPIETLVDILQEYPDEIGYIFKPSCVPLMRCGGCCNGAGLECVPTEESNITMQIMRIKPHRGQHIGEMSFLQHNKCECRPKKDGSTSGSGKSSEGKGEVVRFMDVYQRSYCHPIETLVDIFQEYPNEIEYAFKPSCVPLMRCGGCCNNEGLECVPTEESNITMQIMRAKPHQGQHIGEMSFLQHNKCECRPKKD
[reply] 8 nM

[ask] Look at this binder and give its reported Kd. scVEGF-mJ (designed binder, Soluble protein with C-terminal hexahistidine tag, with or without N-terminal FLAG tag (tags not included in the parts); also called scVEGFmut-J) EIVKARDVYQRSYCHPIETLVDILQEYPDEIEYIFKPSCVPLMRCGGCCNDAGLECVPTEESNITMQIMRIKPYQGHHIGEMSFLQHNKCECRPKKDGSTSGSGKSSEGKGEVVKFMDVYQRSYCHPIETLVDIFQEYPDEIEYAFKPSCVPLMRCGGCCNNEGLECVPTEESNITMQIMRAKPHQGQHTGEMSFLQHNKCECRPKKD
[reply] 3 nM

[ask] Look at this binder and give its reported Kd. scVEGF-mA (designed binder, Soluble protein from P. pastoris with C-terminal hexahistidine tag, with or without N-terminal FLAG tag (tags not included in the parts); also called scVEGFmut-A) EVAKAMDVYQKSYCHPIETLVDILQEYPDEIGYIFKPSCVPLMRCGGCCNDAGLECVPTEESNITMQIMRIKPYQGQHIGEMSFLQHNKCECRPKKDGSTSGSGKSSEGKGEVVKFMDVYQRSYCHPIETLVDIFQEYPDKIEYAFKPSCVPLMRCGGCCNNEGLECVPTEESNITMQITRAKPHQGQHIGEMSFLQHNKCECRPKKD
[reply] 13 nM
